This collection of values is drawn from the supplement of paper PMC12042874.

assay: amyloid nucleation score (Sup35N fusion, yeast selection) (log enrichment); library NNK1; higher = more nucleation; inactive = no reads after selection;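 note: zero at mode of non-aggregating sequences after 7 days selection at 30°C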
ENDPOINT_LABEL: amyloid nucleation score
API note: the answer field is a bare number with no unit suffix.

>  <SUBSTANCE>
CLPLACLKTLSNDSVWLDCA

>  <amyloid nucleation score>
0.402

$$$$
>  <SUBSTANCE>
SEFASLERSHSHLYMWEFSL

>  <amyloid nucleation score>
0.171

$$$$
>  <SUBSTANCE>
SDTLCPSADWVRRSARCQVD

>  <amyloid nucleation score>
0.8

$$$$
>  <SUBSTANCE>
SETLTMFRYCISIRDKGPQG

>  <amyloid nucleation score>
1.24

$$$$

Query: # get_value(readout='amyloid nucleation score', item= `NRTWGYLSCALRNPSMTT` )
Result: -0.305

Query: What do we get for `YPAVNRWSLAVFSVRVRLAG` ?
Result: -0.046

Query: Please do the same for `RVCKFKFYQFSSSKC` as well.
Result: 3.75

Query: What do you have for `VKVRFIRIYYFFCNSKDFRG` ?
Result: -0.308

Query: // next record `FGLAGHFYNWNYIYTSSVWF`
Result: -0.021

Query: What would you report for `GAPLTENKFVLRNFVMGSAL` ?
Result: 0.159

Query: Please do the same for `SARRTPCTVIL` as well.
Result: 0.362

Query: And for `FVQWFASSCCIRPRRYFVSR` ?
Result: -1.42

Query: # repeat for `FQHLNMVTAFSDSRGIPYML`
Result: 1.05
